We begin with a simple list: items and their reported GI50.
Tested on: HT29 colon
Assay: MTT growth inhibition, 72 h, HT29
Format: cell-based, human
result_type: GI50 (nM)

compound="COc1ccc2c(c1)c(CC(=O)OCC(=O)[O][Pt-2]13([OH])([NH2+][C@H]4CCCC[C@@H]4[NH2+]1)[n+]1cccc4cc(C)c5ccc[n+]3c5c41)c(C)n2C(=O)c1ccc(Cl)cc1 [Complex 5, [Pt^IV(5-Mephen)(SS-DACH)(ACE)(OH)]^2+]" result_type=GI50 measurement_units=nM endpoint_value=13
compound=COc1ccc2c(c1)c(CC(=O)OCC(=O)[O][Pt-2]13([OH])([NH2+][C@H]4CCCC[C@@H]4[NH2+]1)[n+]1cccc4c(C)c(C)c5ccc[n+]3c5c41)c(C)n2C(=O)c1ccc(Cl)cc1 result_type=GI50 measurement_units=nM endpoint_value=4.7
compound="COc1ccc2c(c1)c(CC(=O)OCC(=O)[O][Pt-2]13([OH])([NH2+][C@H]4CCCC[C@@H]4[NH2+]1)[n+]1cccc4ccc5ccc[n+]3c5c41)c(C)n2C(=O)c1ccc(Cl)cc1 [Complex 4, [Pt^IV(phen)(SS-DACH)(ACE)(OH)]^2+]" result_type=GI50 measurement_units=nM endpoint_value=290

----------
Test system: A2780 ovarian
Test: MTT growth inhibition, 72 h, A2780
Assay type: cell-based
Mark Yes only for GI50 values smaller than 40 nM; exact matches and larger values are No.

compound="COc1ccc2cc([C@H](C)C(=O)[O][Pt+2]3([OH])[N]4C=CC=c5cc(C)c6c(c54)[N]3C=CC=6)ccc2c1.N[C@H]1CCCC[C@@H]1N (stereo partly drawn) [Complex 2, [Pt^IV(5-Mephen)(SS-DACH)(NPX)(OH)]^2+]" system_name="A2780 ovarian" category=No
compound="COc1ccc2c(c1)c(CC(=O)OCC(=O)[O][Pt-2]13([OH])([NH2+][C@H]4CCCC[C@@H]4[NH2+]1)[n+]1cccc4cc(C)c5ccc[n+]3c5c41)c(C)n2C(=O)c1ccc(Cl)cc1 [Complex 5, [Pt^IV(5-Mephen)(SS-DACH)(ACE)(OH)]^2+]" system_name="A2780 ovarian" category=Yes
compound=COc1ccc2c(c1)c(CC(=O)OCC(=O)[O][Pt-2]13([OH])([NH2+][C@H]4CCCC[C@@H]4[NH2+]1)[n+]1cccc4c(C)c(C)c5ccc[n+]3c5c41)c(C)n2C(=O)c1ccc(Cl)cc1 system_name="A2780 ovarian" category=Yes
compound="COc1ccc2c(c1)c(CC(=O)OCC(=O)[O][Pt-2]13([OH])([NH2+][C@H]4CCCC[C@@H]4[NH2+]1)[n+]1cccc4ccc5ccc[n+]3c5c41)c(C)n2C(=O)c1ccc(Cl)cc1 [Complex 4, [Pt^IV(phen)(SS-DACH)(ACE)(OH)]^2+]" system_name="A2780 ovarian" category=No
compound="COc1ccc2cc([C@H](C)C(=O)[O][Pt+2]3([OH])[N]4C=CC=c5ccc6c(c54)[N]3C=CC=6)ccc2c1.N[C@H]1CCCC[C@@H]1N [Complex 1, [Pt^IV(phen)(SS-DACH)(NPX)(OH)]^2+]" system_name="A2780 ovarian" category=No

----------
Experiment: Reduction with ascorbic acid (AsA) in PBS followed by 1H-NMR and 1D-195Pt-NMR
Format: physicochemical
Settings: estimated 100% reduction, PBS in D2O, 37 °C
result_type: Reduction Times T100% (min)

line_notation=COc1ccc2c(c1)c(CC(=O)OCC(=O)[O][Pt-2]13([OH])([NH2+][C@H]4CCCC[C@@H]4[NH2+]1)[n+]1cccc4c(C)c(C)c5ccc[n+]3c5c41)c(C)n2C(=O)c1ccc(Cl)cc1 result_type="Reduction Times T100%" endpoint_value=5
